# assay_target: Shh-N in conditioned medium (human, UniProt Q15465 24-197, N-terminal palmitoyl modification; lacks the C-terminal cholesterol moiety)
# protocol: cell-based or functional assay
experimental_readout: % Inh of Gli1 reporter, CM N = 1 (%)
The answer is to be given in %; state only the numeric part.

QUERY: Item 4B6 (antibody, V domains shown, fully human XenoMouse hybridoma antibody; tested as hybridoma supernatant and as purified antibody; also called MAb 4B6) VH: QVQLVESGGGVVQPGRSLRLSCAASGFTFSTYGMHWVRQAPGKGLEWVAVIWYDGSNEYYADSVKGRFTISRDNSKNTLYLQMNSLRAEDTAVYYCARDLYYYGSGSPFDYWGQGTLVTVSS VL: EIVMTQSPATLSVSPGERATLSCRASQSVSSNLAWYQQKPGQAPRLLIFGISIRATGIPARFSGSGSGTEFTLTISSLQSEDFAVYYCQQYNDWPRPGFGGGTRVEIK has what recorded % Inh of Gli1 reporter, CM N = 1?
RESULT: 46
